Data provenance: ChEMBL document CHEMBL1127840

tested.system: Polyunsaturated fatty acid 5-lipoxygenase (Homo sapiens, UniProt P09917)
Sequence (P09917 whole entry): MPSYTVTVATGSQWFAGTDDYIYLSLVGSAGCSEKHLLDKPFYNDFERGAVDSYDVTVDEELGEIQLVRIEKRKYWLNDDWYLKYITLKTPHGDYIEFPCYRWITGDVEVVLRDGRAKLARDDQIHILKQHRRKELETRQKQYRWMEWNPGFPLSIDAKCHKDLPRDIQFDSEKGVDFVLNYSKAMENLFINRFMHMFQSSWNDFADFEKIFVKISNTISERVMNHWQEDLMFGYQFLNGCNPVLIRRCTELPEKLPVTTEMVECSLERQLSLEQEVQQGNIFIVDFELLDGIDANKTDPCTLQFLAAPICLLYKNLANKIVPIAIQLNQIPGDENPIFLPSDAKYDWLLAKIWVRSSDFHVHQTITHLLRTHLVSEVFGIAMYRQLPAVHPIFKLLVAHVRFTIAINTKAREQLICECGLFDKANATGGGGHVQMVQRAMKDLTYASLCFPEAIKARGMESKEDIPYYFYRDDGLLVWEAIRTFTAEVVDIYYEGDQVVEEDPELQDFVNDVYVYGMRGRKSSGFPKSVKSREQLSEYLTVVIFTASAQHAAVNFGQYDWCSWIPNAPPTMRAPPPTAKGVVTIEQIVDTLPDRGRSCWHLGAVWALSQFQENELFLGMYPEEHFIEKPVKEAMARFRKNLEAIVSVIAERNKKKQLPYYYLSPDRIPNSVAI
experiment.notes: Inhibition of 5-lipoxygenase from human whole blood
Type: tissue-based
experimental.readout: pIC50
Note on pIC50: it is the negative log10 of concentration, concentration in mol/L.

Asked: Which measured pIC50 value corresponds to COC1(c2cc(F)cc(OCc3ccc4c(ccc(=O)n4C)c3)c2)CCOCC1 [ZD-2138] ?
Given back: 7.57

---

tested.system: UniProt P09917
experiment.notes: Inhibitory concentration against 5-lipoxygenase from human whole blood
Format: tissue-based
experimental.readout: IC50 (µM)
# value in µM; strip the unit string

Asked: Which measured IC50 value corresponds to `CC[C@@](COC)(OC)c1cc(F)cc(OCc2ccc3c(ccc(=O)n3C)c2)c1` ?
Given back: 0.52

---

tested.system: UniProtKB P48999
Sequence (P48999 whole entry): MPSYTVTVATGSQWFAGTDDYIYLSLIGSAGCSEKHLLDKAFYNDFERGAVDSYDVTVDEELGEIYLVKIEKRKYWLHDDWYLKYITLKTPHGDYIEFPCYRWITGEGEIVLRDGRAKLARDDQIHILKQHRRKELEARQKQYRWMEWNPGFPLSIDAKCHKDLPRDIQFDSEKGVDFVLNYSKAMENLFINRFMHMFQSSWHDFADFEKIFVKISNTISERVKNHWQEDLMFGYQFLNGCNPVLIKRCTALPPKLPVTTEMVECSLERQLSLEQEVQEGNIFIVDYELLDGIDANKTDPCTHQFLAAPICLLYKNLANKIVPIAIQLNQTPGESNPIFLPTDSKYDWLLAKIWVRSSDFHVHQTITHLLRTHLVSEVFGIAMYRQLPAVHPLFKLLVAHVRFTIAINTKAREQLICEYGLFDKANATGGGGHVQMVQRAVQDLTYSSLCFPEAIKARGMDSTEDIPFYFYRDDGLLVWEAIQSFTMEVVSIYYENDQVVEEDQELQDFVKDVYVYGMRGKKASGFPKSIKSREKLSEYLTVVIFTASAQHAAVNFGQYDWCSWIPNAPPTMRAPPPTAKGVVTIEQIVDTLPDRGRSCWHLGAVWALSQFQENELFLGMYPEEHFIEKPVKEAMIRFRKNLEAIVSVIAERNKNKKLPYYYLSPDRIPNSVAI
experiment.notes: Inhibitory concentration against 5-lipoxygenase from mouse macrophage
experimental.readout: IC50
// unit must come after the numeric part

Asked: Which measured IC50 value corresponds to COC1(c2nccs2)CCc2ccc(OCc3ccc4ccccc4c3)cc21 (single isomer, unassigned; (-)) ?
Given back: 1.25 µM
